- target.entity: Z A1AT (Homo sapiens, UniProt P01009, E366K)
- Construct: expressed in transfected cells; host or cells: HEK-Z cells (human embryonic kidney cell line)
- Sequence (P01009 25-418 E366K): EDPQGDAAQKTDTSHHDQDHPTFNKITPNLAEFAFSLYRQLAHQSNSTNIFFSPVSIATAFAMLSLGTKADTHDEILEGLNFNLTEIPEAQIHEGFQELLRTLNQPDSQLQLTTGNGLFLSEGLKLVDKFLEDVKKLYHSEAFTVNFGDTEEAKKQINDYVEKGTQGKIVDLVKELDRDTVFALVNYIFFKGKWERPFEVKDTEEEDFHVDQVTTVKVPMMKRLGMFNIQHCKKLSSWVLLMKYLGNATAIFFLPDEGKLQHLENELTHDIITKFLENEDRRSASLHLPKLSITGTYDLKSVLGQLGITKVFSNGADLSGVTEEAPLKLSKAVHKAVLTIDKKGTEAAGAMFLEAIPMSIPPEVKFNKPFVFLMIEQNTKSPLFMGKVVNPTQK
- protocol: A1AT cell secretion assay using HEK-Z cells (A1AT ELISA of supernatants)
- Type: cell-based
- assay.setup: 48 h, read-out: Median A1AT % increase over vehicle at 300 nM
The molecules listed here are annotated with their activation at 0.3 µM.
Your answer is read as %, so omit the unit and give the number.

Worked cases, activation at 0.3 µM given:
# entry.smiles, target.entity, activation at 0.3 µM, %
records = [
    ("CN(Cc1ccccc1)C(=O)c1ccc(Cn2cnc3ccccc3c2=O)cc1", "Z A1AT (Homo sapiens, UniProt P01009, E366K)", 160),
    ("CNC(=O)c1ccc(Cn2cnc3ccccc3c2=O)cc1", "Z A1AT (Homo sapiens, UniProt P01009, E366K)", 180),
    ("CN(CC(F)(F)F)C(=O)c1ccc(Cn2cnc3ccccc3c2=O)cc1", "Z A1AT (Homo sapiens, UniProt P01009, E366K)", 170),
]

Now turn to the next molecule.
[ask] Please state recorded activation at 0.3 µM (tested on Z A1AT (Homo sapiens, UniProt P01009, E366K)) of CC(C)N(C)C(=O)c1ccc(Cn2cnc3ccccc3c2=O)cc1
[reply] 190
